target: CSBP/p38 (Homo sapiens, UniProt Q16539); assay: CSBP/p38 Kinase Assay (32P transfer to T669 peptide); conditions: "in this binding assay or a similar assay"; read-out: positive inhibitory activity, IC50
Sequence (Q16539 whole entry): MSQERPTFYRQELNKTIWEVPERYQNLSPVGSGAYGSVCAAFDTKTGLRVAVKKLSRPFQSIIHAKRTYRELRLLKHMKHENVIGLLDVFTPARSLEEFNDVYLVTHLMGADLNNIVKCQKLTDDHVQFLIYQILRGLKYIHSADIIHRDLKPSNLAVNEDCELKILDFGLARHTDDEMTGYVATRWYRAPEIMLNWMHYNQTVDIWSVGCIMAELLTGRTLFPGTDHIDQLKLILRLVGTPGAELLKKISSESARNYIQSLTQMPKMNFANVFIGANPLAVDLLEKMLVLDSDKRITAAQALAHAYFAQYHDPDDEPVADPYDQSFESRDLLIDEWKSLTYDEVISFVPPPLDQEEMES
METRIC: IC50

Record Nc1cc(-n2nc(-c3ccccc3)nc2-c2ccc(F)cc2)ncn1 , field IC50: < 50 µM

Where do these numbers come from? They come from patent US7223760B2.
